Task for the reader: assign each of the following molecules its reported residence time.
Target System: HDAC2 (Homo sapiens (Human), UniProt Q92769)
Sequence (Q92769 whole entry): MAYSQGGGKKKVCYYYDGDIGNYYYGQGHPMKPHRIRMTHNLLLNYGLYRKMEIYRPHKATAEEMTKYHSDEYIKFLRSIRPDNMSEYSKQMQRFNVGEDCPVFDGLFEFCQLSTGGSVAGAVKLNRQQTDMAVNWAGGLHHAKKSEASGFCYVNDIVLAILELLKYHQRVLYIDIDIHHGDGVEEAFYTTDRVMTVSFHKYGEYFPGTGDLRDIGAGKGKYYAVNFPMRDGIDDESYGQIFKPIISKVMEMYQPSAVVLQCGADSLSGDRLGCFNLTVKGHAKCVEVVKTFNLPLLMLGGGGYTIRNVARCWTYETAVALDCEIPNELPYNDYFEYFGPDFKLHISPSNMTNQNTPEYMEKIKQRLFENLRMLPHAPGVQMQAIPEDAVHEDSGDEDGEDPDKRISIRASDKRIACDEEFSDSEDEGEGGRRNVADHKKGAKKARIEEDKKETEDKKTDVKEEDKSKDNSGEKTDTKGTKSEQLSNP
Assay Procedure: Reporter displacement assay (HDAC2)
Format: binding
Give just the numeric value; min need not be written.

The molecule listed as Nc1ccc(-c2ccc(C(F)(F)F)cc2F)cc1NC(=O)N1Cc2ccncc2C1 [Compound 132] has a reported residence time of 111

Value of measured residence time for the entry CC(C)(C)OC(=O)N1CCC2(CCN(C(=O)Nc3cc(-c4ccc(F)cc4)ccc3N)CC2)C1 [Compound 161] : 2640

For this molecule ( Nc1ccc(-c2ccc(F)cc2)cc1NC(=O)c1nc2c(s1)CCNC2 [Compound 175] ), measured residence time is 2710

Input COCCN1CCC2(CCN(C(=O)Nc3cc(-c4ccc(F)cc4)ccc3N)CC2)C1 [Compound 138] . Output residence time: 2370

Item: Nc1ccc(-c2cc(F)c(F)c(F)c2)cc1NC(=O)N1Cc2ccncc2C1 [Compound 142] | residence time: 1010

Memo: Nc1ccc(-c2ccc(F)cc2)cc1NC(=O)N1CCC2(CC1)COC2 [Compound 127] , reported residence time: 2540

response.value for CC(C)(C)OC(=O)N1CC2CN(C(=O)Nc3cc(-c4ccc(F)cc4)ccc3N)CC2C1 (centres unmarked) [Compound 124] (field: residence time) = 1790

Consider Nc1ccc(-c2cccnc2)cc1NC(=O)N1Cc2ccncc2C1 [Compound 134] . Its measured residence time is 790

// recorded residence time for Nc1ccc(-c2ccco2)cc1NC(=O)N1Cc2ccncc2C1 [Compound 168] : 5570

Lab book: residence time of Nc1ccc(-c2ccc(F)cc2F)cc1NC(=O)N1Cc2ccncc2C1 [Compound 133] noted as 1460

For Nc1ccc(-c2ccncc2)cc1NC(=O)N1CCC2(CCN(CCF)C2)CC1 [Compound 144] the molecule record lists residence time as 1490

Record summary for CC(C)OC(=O)N1CC2CN(C(=O)Nc3cc(-c4ccc(F)cc4)ccc3N)CC2C1 (centres unmarked) [Compound 156] : reported residence time = 1800

Value of measured residence time for the entry CC(C)(C)OC(=O)N1C2CCC1CN(C(=O)Nc1cc(-c3ccc(F)cc3)ccc1N)C2 [Compound 112] : 38

Memo: Nc1ccc(-c2ccc(F)cc2)cc1NC(=O)N1Cc2nccnc2C1 [Compound 119] , reported residence time: 2150

Data point: Nc1ccc(-c2ccoc2)cc1NC(=O)N1Cc2ccncc2C1 [Compound 151] ; residence time = 6280

Record Nc1ccc(-c2ccncn2)cc1NC(=O)N1Cc2ccncc2C1 [Compound 103] , field residence time: 1960

residence time recorded for this molecule, Nc1ccc(-c2ccc(F)cc2)cc1NC(=O)N1CC2CNCC2C1 (centres unmarked) [Compound 114] , is 1470

According to the records, this molecule COCCN1CCC2(CCN(C(=O)Nc3cc(-c4ccncc4)ccc3N)CC2)C1 [Compound 136] displays residence time of 1540

Sample Nc1ccc(-c2ccc(F)c(F)c2)cc1NC(=O)c1cn2c(n1)CNCC2 [Compound 131] ; residence time observed: 1200

The value of residence time measured for the molecule CNC(=O)N1CC2CN(C(=O)Nc3cc(-c4ccc(F)cc4)ccc3N)CC2C1 (centres unmarked) [Compound 120] turned out to be 2360

Sure, the documented residence time for Nc1ccc(-c2ccc(F)cc2)cc1NC(=O)N1CCC2(CC1)CCN(C1COC1)C2 [Compound 164] is 2210

Briefly, residence time measured for Nc1ccc(-c2ccccn2)cc1NC(=O)N1Cc2ccncc2C1 [Compound 146] : 1280

Briefly, residence time measured for Nc1ccc(-c2ccc(C(F)(F)F)cc2)cc1NC(=O)N1Cc2ccncc2C1 [Compound 140] : 341

Recorded result, Nc1ccc(-c2ccc(F)cc2)cc1NC(=O)N1CC2CN(C(=O)C3CC3)CC2C1 (centres unmarked) [Compound 125] , residence time: 1410

Value of residence time reported for the molecule Nc1ccc(-c2ccncc2)cc1NC(=O)N1CCC2(CC1)CCN(C1COC1)C2 [Compound 165] is 1720

Value of residence time reported for the molecule NCC(=O)N1CC2CN(C(=O)Nc3cc(-c4ccc(F)cc4)ccc3N)CC2C1 (centres unmarked) [Compound 121] is 869

The reported value for Nc1ccc(-c2ccc(F)cc2)cc1NC(=O)N1CCC2(CCN(CCF)C2)CC1 [Compound 143] in terms of residence time is 1490

For record Nc1ccc(-c2ccncc2)cc1NC(=O)N1CC2CN(C3COC3)CC2C1 (centres unmarked) [Compound 129] the listed residence time is 1700

// residence time lookup, molecule = Nc1ccc(-c2ccc(F)cc2)cc1NC(=O)N1CC2CN(C(=O)OC3CCC3)CC2C1 (centres unmarked) [Compound 159] , result: 2640

Query Nc1ccc(-c2ccc(F)cc2)cc1NC(=O)N1CC2CCNCC2C1 (centres unmarked) [Compound 170] yields residence time of 2160

Given item Nc1ccc(-c2ccncc2)cc1NC(=O)c1nc2c(s1)CCNC2 [Compound 174] , the value recorded as its residence time is 1940

Form: molecule = Nc1ccc(-c2ccc(F)cc2)cc1NC(=O)N1CC2CN(C(=O)OC3CC3)CC2C1 (centres unmarked) [Compound 158] ; residence time = 2140

According to the records, this molecule Nc1ccc(-c2ccc(F)cc2)cc1NC(=O)N1CCC2(CCOCC2)C1 [Compound 172] displays residence time of 987

# residence time of COC(=O)N1CC2CN(C(=O)Nc3cc(-c4ccc(F)cc4)ccc3N)CC2C1 (centres unmarked) [Compound 154] = 1540

Notebook: Nc1ccc(-c2ccc(C(F)(F)F)cn2)cc1NC(=O)N1Cc2ccncc2C1 [Compound 167] , residence time read as 864

---

Target System: UniProtKB Q92769
Assay Procedure: Reporter displacement assay (HDAC2)
Study Conditions: reporter probe displacement, Cheng Prusoff
Kindly state Kd for each of the entries shown.

Per the record, CC(=O)N1CC2CC1CN2C(=O)Nc1cc(-c2ccncc2)ccc1N (centres unmarked) has Kd of > 5 µM

Please fill in: Kd reported for Nc1ccc(-c2ccncc2)cc1NC(=O)N1Cc2ccncc2C1 = 0.1 to 0.5 µM

For record Nc1ccc(-c2ccc(F)cc2)cc1NC(=O)c1cn2c(n1)CNCC2 the listed Kd is 0.1 to 0.5 µM

According to the records, this compound CC(C)(C)OC(=O)N1CCC2CN(C(=O)Nc3cc(-c4ccc(F)cc4)ccc3N)CC2C1 (centres unmarked) displays Kd of 0.1 to 0.5 µM

# Kd of Nc1ccc(-c2ccc(F)cc2)cc1NC(=O)N1CC2CCC(C1)O2 = > 5 µM

---

I'd be grateful if you could share measured Kd for these entries.
Target System: HDAC2 (Homo sapiens (Human), UniProt Q92769)
Assay Procedure: Reporter displacement assay (HDAC2)
Study Conditions: reporter probe displacement, Cheng Prusoff

For record CC(C)(C)OC(=O)N1CCC2(CCN(C(=O)Nc3cc(-c4ccc(F)cc4)ccc3N)CC2)C1 the listed Kd is 100 to 500 nM

Lab note: Nc1ccc(-c2ccncc2)cc1NC(=O)N1CCC2(CCN(CCF)C2)CC1 gave Kd of 500 to 5000 nM

So, Nc1ccc(-c2ccncc2)cc1NC(=O)N1CC2CN(C3COC3)CC2C1 (stereo not drawn) ? Its Kd was 100 to 500 nM

// Kd lookup, compound = Nc1ccc(-c2ccc(F)cc2)cc1NC(=O)N1CC2CN(C(=O)OC3CC3)CC2C1 (stereo not drawn) , result: 100 to 500 nM

The measured Kd associated with Nc1ccc(-c2ccc(F)cc2)cc1NC(=O)N1CCC2(CC1)COC2 reads 100 to 500 nM

Record Nc1ccc(-c2ccncc2)cc1NC(=O)c1cn2c(n1)CNCC2 , field Kd: 100 to 500 nM

Per the record, N#CC1CCc2nc(C(=O)Nc3cc(-c4ccc(F)cc4)ccc3N)cn2C1 (stereo not drawn) has Kd of 100 to 500 nM

Sure, the documented Kd for Nc1ccc(-c2ccc(C(F)(F)F)cc2)cc1NC(=O)N1Cc2ccncc2C1 is 500 to 5000 nM

Please fill in: Kd reported for Nc1ccc(-c2ccncc2)cc1NC(=O)N1CCC2(CC1)CCN(C1COC1)C2 = 100 to 500 nM

So, CC(C)CC(=O)N1CC2CN(C(=O)Nc3cc(-c4ccc(F)cc4)ccc3N)CC2C1 (stereo not drawn) ? Its Kd was 100 to 500 nM

Value of Kd reported for the compound Nc1ccc(-c2ccc(F)cc2)cc1NC(=O)N1CC2CCNCC2C1 (stereo not drawn) is 500 to 5000 nM

Noted for CC(C)(C)OC(=O)N1CCC2(CC1)CN(C(=O)Nc1cc(-c3ccc(F)cc3)ccc1N)C2 : its Kd reads 500 to 5000 nM

Field Kd (entry Nc1ccc(-c2ccc(F)cc2)cc1NC(=O)N1CC2(CCOCC2)C1 ) reads 500 to 5000 nM

Reported Kd for Nc1ccc(-c2ccc(Cl)cc2)cc1NC(=O)N1Cc2ccncc2C1 was 100 to 500 nM

Kd in this record for Nc1ccc(-c2ccc(F)c(F)c2)cc1NC(=O)N1Cc2nccnc2C1 : 100 to 500 nM

Record summary for Nc1ccc(-c2ccccn2)cc1NC(=O)N1Cc2ccncc2C1 : reported Kd = 500 to 5000 nM

Per the records, this compound ( CN1CC2CN(C(=O)Nc3cc(-c4ccncc4)ccc3N)CC2C1=O (stereo not drawn) ) has Kd equal to 500 to 5000 nM

Sample Nc1ccc(-c2ccc(F)cc2)cc1NC(=O)N1CC2CNCC2C1 (stereo not drawn) ; Kd observed: 500 to 5000 nM
